- assayed-target: T1, fibroblast activation protein (FAP) on FAP-expressing human WI-38 fibroblasts (human, UniProt Q12884 1-760)
- T1 construct: Endogenous FAP on WI-38 cells (ECACC) in the FACS assay; also called human FAP
- assay-method-text: competitive FACS on WI-38 cells vs 3 nM Cy5-labeled probe; A = pIC50 >7.0
Bridges are numbered along the chain shown (N, C = ends). The star is where a group is joined. mli = maleimide cyclization element: 3,4-maleimide inserted symmetrically, forming a vinyl thioether with each Cys sulfur; N4Ac = 6-carboxy-1,4,8,11-tetraazaundecane, NCCNCC(CNCCN)C(=O)*; Buur = n-butylaminocarbonyl blocking group, CCCCNC(=O)*; DOTA = O=C(O)CN1CCN(CC(=O)O)CCN(CC(=O)*)CCN(CC(=O)O)CC1; Hexanoyl = CCCCCC(=O)*
# pIC50 Category (FACS) annotations

INSERT INTO measurements (binder, recorded_result) VALUES
  ('Hexanoyl-CPPTEFCDK(N4Ac)-NH2 (disulfide 1-7; SMILES CCCCCC(=O)N[C@H]1CSSC[C@@H](C(=O)N[C@@H](CC(=O)O)C(=O)N[C@@H](CCCCNC(=O)C(CNCCN)CNCCN)C(N)=O)NC(=O)[C@H](Cc2ccccc2)NC(=O)[C@H](CCC(=O)O)NC(=O)[C@H]([C@@H](C)O)NC(=O)[C@@H]2CCCN2C(=O)[C@@H]2CCCN2C1=O) [compound Hex-[Cys-Pro-Pro-Thr-Glu-Phe-Cys]-Asp-Lys(N4Ac)-NH2 (1021)]', '> 7 pIC50');

The record that follows has no pIC50 Category (FACS) shown yet.
GET /value?item= Buur-CPPTQFCDK(DOTA)-NH2 (linker 1-7 via mli) [compound Buur-[Cys(mli)-Pro-Pro-Thr-Gln-Phe-Cys]-Asp-Lys(DOTA)-NH2 (2014)] &field=pIC50 Category (FACS) returns > 7 pIC50
